- System: Human Oral Mucosa Explant Tissues
- TEST_METHOD_NOTES: Effect of final gel pH on anthocyanin uptake into human oral mucosa explant tissues
- Type: in vitro ADME
- TEST_CONDITIONS: explant sample 009; 10% w/w FBR gel
- Protocol: Anthocyanin content in sera, saliva, and tissue explants was evaluated by an HPLC-MS assay. The respective samples (sera, saliva or tissue homogenates) were dissolved in 90% solvent A (water plus 1% formic acid) and 10% solvent B (acetonitrile plus 1% formic acid) and then separated on a Symmetry C18 reversed-phase column and analyzed using a Waters 2695 gradient HPLC separation module equipped with a 996 photodiode-array (PDA) UV/visible absorbance detector (Milford, Mass.). […]
Give Anthocyanin uptake, Gel pH 6.5 for every item shown.
Record the value in pmol per mg tissue, omitting the unit from your answer.

Which measured Anthocyanin uptake, Gel pH 6.5 value corresponds to CC1OC(OCC2OC(Oc3cc4c(O)cc(O)cc4[o+]c3-c3ccc(O)c(O)c3)C(OC3OCC(O)C(O)C3O)C(O)C2O)C(O)C(O)C1O (stereo not shown) [cyanidin 3-xylosylrutinoside] ?
41.3

Which measured Anthocyanin uptake, Gel pH 6.5 value corresponds to C[C@@H]1O[C@@H](OC[C@H]2O[C@@H](Oc3cc4c(O)cc(O)cc4[o+]c3-c3ccc(O)c(O)c3)[C@H](O)[C@@H](O)[C@@H]2O)[C@H](O)[C@H](O)[C@H]1O [cyanidin 3-rutinoside] ?
207.4

Which measured Anthocyanin uptake, Gel pH 6.5 value corresponds to OC[C@H]1O[C@@H](Oc2cc3c(O)cc(O)cc3[o+]c2-c2ccc(O)c(O)c2)[C@H](O[C@@H]2OC[C@@H](O)[C@H](O)[C@H]2O)[C@@H](O)[C@@H]1O.[Cl-] [Cyanidin 3-sambubioside, cyanidin 3-sambubioside] ?
10.3

Which measured Anthocyanin uptake, Gel pH 6.5 value corresponds to OC[C@H]1O[C@@H](Oc2cc3c(O)cc(O)cc3[o+]c2-c2ccc(O)c(O)c2)[C@H](O)[C@@H](O)[C@@H]1O [cyanidin 3-glucoside] ?
45.3

* * *

Give Anthocyanin uptake, Gel pH 6.5 for every item shown.
- Test system: Human Oral Mucosa Explant Tissues
- TEST_METHOD_NOTES: Effect of final gel pH on anthocyanin uptake into human oral mucosa explant tissues
- Assay type: in vitro ADME
- TEST_CONDITIONS: explant sample 008; 10% w/w FBR gel
Record the value in pmol per mg tissue, omitting the unit from your answer.

Which measured Anthocyanin uptake, Gel pH 6.5 value corresponds to OC[C@H]1O[C@@H](Oc2cc3c(O)cc(O)cc3[o+]c2-c2ccc(O)c(O)c2)[C@H](O)[C@@H](O)[C@@H]1O [cyanidin 3-glucoside] ?
19.7

Which measured Anthocyanin uptake, Gel pH 6.5 value corresponds to CC1OC(OCC2OC(Oc3cc4c(O)cc(O)cc4[o+]c3-c3ccc(O)c(O)c3)C(OC3OCC(O)C(O)C3O)C(O)C2O)C(O)C(O)C1O (stereo not shown) [cyanidin 3-xylosylrutinoside] ?
6.3

Which measured Anthocyanin uptake, Gel pH 6.5 value corresponds to OC[C@H]1O[C@@H](Oc2cc3c(O)cc(O)cc3[o+]c2-c2ccc(O)c(O)c2)[C@H](O[C@@H]2OC[C@@H](O)[C@H](O)[C@H]2O)[C@@H](O)[C@@H]1O.[Cl-] [Cyanidin 3-sambubioside, cyanidin 3-sambubioside] ?
1.9

Which measured Anthocyanin uptake, Gel pH 6.5 value corresponds to C[C@@H]1O[C@@H](OC[C@H]2O[C@@H](Oc3cc4c(O)cc(O)cc4[o+]c3-c3ccc(O)c(O)c3)[C@H](O)[C@@H](O)[C@@H]2O)[C@H](O)[C@H](O)[C@H]1O [cyanidin 3-rutinoside] ?
35.1

* * *

- System: Human Oral Mucosa Explant Tissues
- TEST_METHOD_NOTES: Effect of final gel pH on anthocyanin uptake into human oral mucosa explant tissues
- Assay type: in vitro ADME
- TEST_CONDITIONS: explant sample 007; 10% w/w FBR gel
MEASURE_NAME: Anthocyanin uptake, Gel pH 3.5 (pmol per mg tissue)
Record the value in pmol per mg tissue, omitting the unit from your answer.

Which measured Anthocyanin uptake, Gel pH 3.5 value corresponds to C[C@@H]1O[C@@H](OC[C@H]2O[C@@H](Oc3cc4c(O)cc(O)cc4[o+]c3-c3ccc(O)c(O)c3)[C@H](O)[C@@H](O)[C@@H]2O)[C@H](O)[C@H](O)[C@H]1O [cyanidin 3-rutinoside] ?
5.6

Which measured Anthocyanin uptake, Gel pH 3.5 value corresponds to OC[C@H]1O[C@@H](Oc2cc3c(O)cc(O)cc3[o+]c2-c2ccc(O)c(O)c2)[C@H](O)[C@@H](O)[C@@H]1O [cyanidin 3-glucoside] ?
17.0

Which measured Anthocyanin uptake, Gel pH 3.5 value corresponds to CC1OC(OCC2OC(Oc3cc4c(O)cc(O)cc4[o+]c3-c3ccc(O)c(O)c3)C(OC3OCC(O)C(O)C3O)C(O)C2O)C(O)C(O)C1O (stereo not shown) [cyanidin 3-xylosylrutinoside] ?
1.1

Which measured Anthocyanin uptake, Gel pH 3.5 value corresponds to OC[C@H]1O[C@@H](Oc2cc3c(O)cc(O)cc3[o+]c2-c2ccc(O)c(O)c2)[C@H](O[C@@H]2OC[C@@H](O)[C@H](O)[C@H]2O)[C@@H](O)[C@@H]1O.[Cl-] [Cyanidin 3-sambubioside, cyanidin 3-sambubioside] ?
0.4

* * *

Give % change 3.5 to 6.5 for every item shown.
- Tested on: Human Oral Mucosa Explant Tissues
- TEST_METHOD_NOTES: Effect of final gel pH on anthocyanin uptake into human oral mucosa explant tissues
- Assay type: in vitro ADME
- TEST_CONDITIONS: explant sample 002; 10% w/w FBR gel
Record the value in %, omitting the unit from your answer.

Which measured % change 3.5 to 6.5 value corresponds to C[C@@H]1O[C@@H](OC[C@H]2O[C@@H](Oc3cc4c(O)cc(O)cc4[o+]c3-c3ccc(O)c(O)c3)[C@H](O)[C@@H](O)[C@@H]2O)[C@H](O)[C@H](O)[C@H]1O [cyanidin 3-rutinoside] ?
627.2

Which measured % change 3.5 to 6.5 value corresponds to OC[C@H]1O[C@@H](Oc2cc3c(O)cc(O)cc3[o+]c2-c2ccc(O)c(O)c2)[C@H](O[C@@H]2OC[C@@H](O)[C@H](O)[C@H]2O)[C@@H](O)[C@@H]1O.[Cl-] [Cyanidin 3-sambubioside, cyanidin 3-sambubioside] ?
427.3

Which measured % change 3.5 to 6.5 value corresponds to OC[C@H]1O[C@@H](Oc2cc3c(O)cc(O)cc3[o+]c2-c2ccc(O)c(O)c2)[C@H](O)[C@@H](O)[C@@H]1O [cyanidin 3-glucoside] ?
36.2

Which measured % change 3.5 to 6.5 value corresponds to CC1OC(OCC2OC(Oc3cc4c(O)cc(O)cc4[o+]c3-c3ccc(O)c(O)c3)C(OC3OCC(O)C(O)C3O)C(O)C2O)C(O)C(O)C1O (stereo not shown) [cyanidin 3-xylosylrutinoside] ?
747.1

* * *

Give Anthocyanin uptake, Gel pH 6.5, Avg. ± SEM for every item shown.
- Test system: Human Oral Mucosa Explant Tissues
- TEST_METHOD_NOTES: Effect of final gel pH on anthocyanin uptake into human oral mucosa explant tissues
- Type: in vitro ADME
- TEST_CONDITIONS: average of eleven explant samples; 10% w/w FBR gel
Record the value in pmol per mg tissue, omitting the unit from your answer.

Which measured Anthocyanin uptake, Gel pH 6.5, Avg. ± SEM value corresponds to OC[C@H]1O[C@@H](Oc2cc3c(O)cc(O)cc3[o+]c2-c2ccc(O)c(O)c2)[C@H](O[C@@H]2OC[C@@H](O)[C@H](O)[C@H]2O)[C@@H](O)[C@@H]1O.[Cl-] [Cyanidin 3-sambubioside, cyanidin 3-sambubioside] ?
5.3

Which measured Anthocyanin uptake, Gel pH 6.5, Avg. ± SEM value corresponds to CC1OC(OCC2OC(Oc3cc4c(O)cc(O)cc4[o+]c3-c3ccc(O)c(O)c3)C(OC3OCC(O)C(O)C3O)C(O)C2O)C(O)C(O)C1O (stereo not shown) [cyanidin 3-xylosylrutinoside] ?
17.4

Which measured Anthocyanin uptake, Gel pH 6.5, Avg. ± SEM value corresponds to C[C@@H]1O[C@@H](OC[C@H]2O[C@@H](Oc3cc4c(O)cc(O)cc4[o+]c3-c3ccc(O)c(O)c3)[C@H](O)[C@@H](O)[C@@H]2O)[C@H](O)[C@H](O)[C@H]1O [cyanidin 3-rutinoside] ?
113.0

Which measured Anthocyanin uptake, Gel pH 6.5, Avg. ± SEM value corresponds to OC[C@H]1O[C@@H](Oc2cc3c(O)cc(O)cc3[o+]c2-c2ccc(O)c(O)c2)[C@H](O)[C@@H](O)[C@@H]1O [cyanidin 3-glucoside] ?
50.2

* * *

Give Anthocyanin uptake, Gel pH 6.5 for every item shown.
- System: Human Oral Mucosa Explant Tissues
- TEST_METHOD_NOTES: Effect of final gel pH on anthocyanin uptake into human oral mucosa explant tissues
- Type: in vitro ADME
- TEST_CONDITIONS: explant sample 005; 10% w/w FBR gel
Record the value in pmol per mg tissue, omitting the unit from your answer.

Which measured Anthocyanin uptake, Gel pH 6.5 value corresponds to OC[C@H]1O[C@@H](Oc2cc3c(O)cc(O)cc3[o+]c2-c2ccc(O)c(O)c2)[C@H](O)[C@@H](O)[C@@H]1O [cyanidin 3-glucoside] ?
52.9

Which measured Anthocyanin uptake, Gel pH 6.5 value corresponds to OC[C@H]1O[C@@H](Oc2cc3c(O)cc(O)cc3[o+]c2-c2ccc(O)c(O)c2)[C@H](O[C@@H]2OC[C@@H](O)[C@H](O)[C@H]2O)[C@@H](O)[C@@H]1O.[Cl-] [Cyanidin 3-sambubioside, cyanidin 3-sambubioside] ?
0.1

Which measured Anthocyanin uptake, Gel pH 6.5 value corresponds to C[C@@H]1O[C@@H](OC[C@H]2O[C@@H](Oc3cc4c(O)cc(O)cc4[o+]c3-c3ccc(O)c(O)c3)[C@H](O)[C@@H](O)[C@@H]2O)[C@H](O)[C@H](O)[C@H]1O [cyanidin 3-rutinoside] ?
2.8

Which measured Anthocyanin uptake, Gel pH 6.5 value corresponds to CC1OC(OCC2OC(Oc3cc4c(O)cc(O)cc4[o+]c3-c3ccc(O)c(O)c3)C(OC3OCC(O)C(O)C3O)C(O)C2O)C(O)C(O)C1O (stereo not shown) [cyanidin 3-xylosylrutinoside] ?
0.5
